From: patent US11357779B2

test summary: Noncompartmental pharmacokinetic parameters (Cmax, Tmax, AUC, Racc) in QD and BID cohorts of Form B
Assay type: in vivo, human
protocol conditions: human, plasma, oral, 300 mg, Compound III; 300 mg QD of Form B; Cohort 2; Day 1; read-out: Cmax (Median)
experimental readout: Cmax (ng/mL)

                           substance_smiles  scale_unit  reported_value
0  O=C1NCC2(CCCCC2)n2c1cc1cnc(Nc3ccc(N4CCNCC4)cn3)nc12       ng/mL            6.21

----------
test summary: Plasma concentration versus time of Compound I and metabolite Compound III in patients dosed QD or BID with Form B of Compound II plus fulvestrant
Format: in vivo, human
protocol conditions: human, plasma, oral, 200 mg, Cohort 8, 200 mg BID of Form B, Day 29, 6.0 h; read-out: Compound I Concentration, Max
experimental readout: concentration at 6 h (ng/mL)

In [3]: df
Out[3]:
                                   compound  reported_value
0  CC(C)N1CCN(c2ccc(Nc3ncc4cc5n(c4n3)C3(CCCCC3)CNC5=O)nc2)CC1 [Compound I]            28.1

----------
test summary: Plasma concentration versus time of Compound I and metabolite Compound III in patients dosed QD or BID with Form B of Compound II plus fulvestrant
Type: in vivo, human
protocol conditions: human, plasma, oral, 650 mg, Cohort 5, 650 mg QD of Form B, Day 15; read-out: Trough Compound I Concentration, Mean
experimental readout: concentration at 15 day

>>> print(df.to_string())
                           substance_smiles     experimental_readout  reported_value
0  CC(C)N1CCN(c2ccc(Nc3ncc4cc5n(c4n3)C3(CCCCC3)CNC5=O)nc2)CC1  concentration at 15 day      25.7 ng/mL

----------
test summary: Plasma concentration versus time of Compound I and metabolite Compound III in patients dosed QD or BID with Form B of Compound II plus fulvestrant
Type: in vivo, human
protocol conditions: human, plasma, oral, 650 mg, 650 mg QD of Form B, Day 1, 12.0 h, Median; read-out: Compound I Concentration
experimental readout: concentration at 12 h (ng/mL)

In [3]: df
Out[3]:
                           substance_smiles  reported_value
0  CC(C)N1CCN(c2ccc(Nc3ncc4cc5n(c4n3)C3(CCCCC3)CNC5=O)nc2)CC1            37.3

----------
test summary: Noncompartmental pharmacokinetic parameters (Cmax, Tmax, AUC, Racc) in QD and BID cohorts of Form B
Type: in vivo, human
protocol conditions: human, plasma, oral, 650 mg, Compound III; 650 mg QD of Form B; Cohort 5; Day 1; read-out: AUClast (Median)
experimental readout: AUC(0-t) (ng·h/mL)

>>> df
                                   compound  experimental_readout  reported_value
0  O=C1NCC2(CCCCC2)n2c1cc1cnc(Nc3ccc(N4CCNCC4)cn3)nc12 [Compound III]              AUC(0-t)             125

----------
test summary: Pharmacokinetics of Compound I in healthy volunteers after a single dose of Form B of Compound II
Type: in vivo, human
protocol conditions: human, plasma, oral, single 48 mg dose of Form B of Compound II
experimental readout: AUC(0-inf) (ng·h/mL)

>>> df
                           substance_smiles  scale_unit  reported_value
0  CC(C)N1CCN(c2ccc(Nc3ncc4cc5n(c4n3)C3(CCCCC3)CNC5=O)nc2)CC1     ng·h/mL            20.4

----------
test summary: Plasma concentration versus time of Compound I and metabolite Compound III in patients dosed QD or BID with Form B of Compound II plus fulvestrant
Format: in vivo, human
protocol conditions: human, plasma, oral, 400 mg, 400 mg QD of Form B, Day 1, 8.0 h, Median; read-out: Compound I Concentration
experimental readout: concentration at 8 h

In [3]: df
Out[3]:
                           substance_smiles  experimental_readout  reported_value
0  CC(C)N1CCN(c2ccc(Nc3ncc4cc5n(c4n3)C3(CCCCC3)CNC5=O)nc2)CC1  concentration at 8 h        16 ng/mL

----------
test summary: Noncompartmental pharmacokinetic parameters (Cmax, Tmax, AUC, Racc) in QD and BID cohorts of Form B
Assay type: in vivo, human
protocol conditions: human, plasma, oral, 300 mg, Compound III; 300 mg QD of Form B; Cohort 2; Day 1; read-out: AUClast (Median)
experimental readout: AUC(0-t) (µg·h/mL)

In [3]: df
Out[3]:
                                   compound  reported_value
0  O=C1NCC2(CCCCC2)n2c1cc1cnc(Nc3ccc(N4CCNCC4)cn3)nc12 [Compound III]          0.0531

----------
test summary: Pharmacokinetics of Compound I in healthy volunteers after a single dose of Form B of Compound II
Format: in vivo, human
protocol conditions: human, blood, oral, single 300 mg dose of Form B of Compound II, read-out: Vz/F
experimental readout: Vd/F (L)

>>> df
                                   compound  reported_value
0  CC(C)N1CCN(c2ccc(Nc3ncc4cc5n(c4n3)C3(CCCCC3)CNC5=O)nc2)CC1 [Compound I]           19100

----------
test summary: Noncompartmental pharmacokinetic parameters (Cmax, Tmax, AUC, Racc) in QD and BID cohorts of Form B
Type: in vivo, human
protocol conditions: human, plasma, oral, 650 mg, Compound III; 650 mg QD of Form B; Cohort 5; Day 1; read-out: AUClast (Mean)
experimental readout: AUC(0-t) (ng·h/mL)

>>> print(df.to_string())
                                   compound  scale_unit  reported_value
0  O=C1NCC2(CCCCC2)n2c1cc1cnc(Nc3ccc(N4CCNCC4)cn3)nc12 [Compound III]     ng·h/mL             123

----------
test summary: Plasma concentration versus time of Compound I and metabolite Compound III in patients dosed QD or BID with Form B of Compound II plus fulvestrant
Format: in vivo, human
protocol conditions: human, plasma, oral, 150 mg, 150 mg BID of Form B, Day 1, 10.0 h, Mean; read-out: Compound I Concentration
experimental readout: concentration at 10 h (ng/mL)

                                   compound   experimental_readout  reported_value
0  CC(C)N1CCN(c2ccc(Nc3ncc4cc5n(c4n3)C3(CCCCC3)CNC5=O)nc2)CC1 [Compound I]  concentration at 10 h            8.98

----------
test summary: Plasma concentration versus time of Compound I and metabolite Compound III in patients dosed QD or BID with Form B of Compound II plus fulvestrant
Type: in vivo, human
protocol conditions: human, plasma, oral, 650 mg, 650 mg QD of Form B, Day 1, […], Median; read-out: Compound III Concentration
experimental readout: concentration at 24 h (ng/mL)

                                   molecule  reported_value
0  O=C1NCC2(CCCCC2)n2c1cc1cnc(Nc3ccc(N4CCNCC4)cn3)nc12 [Compound III]            1.51

----------
test summary: Plasma concentration versus time of Compound I and metabolite Compound III in patients dosed QD or BID with Form B of Compound II plus fulvestrant
Assay type: in vivo, human
protocol conditions: human, plasma, oral, 300 mg, 300 mg QD of Form B, Day 29, 2.0 h, Median; read-out: Compound I Concentration
experimental readout: concentration at 2 h (ng/mL)

>>> df
                                   molecule  reported_value
0  CC(C)N1CCN(c2ccc(Nc3ncc4cc5n(c4n3)C3(CCCCC3)CNC5=O)nc2)CC1 [Compound I]            19.5

----------
test summary: Plasma concentration versus time of Compound I and metabolite Compound III in patients dosed QD or BID with Form B of Compound II plus fulvestrant
Assay type: in vivo, human
protocol conditions: human, plasma, oral, 650 mg, 650 mg QD of Form B, Day 1, 6.0 h, Median; read-out: Compound III Concentration
Text: Patients were enrolled into 1 of 2 parallel, independently operating, dose-escalation dosing cohorts with Form B of Compound II administered continuously either once daily (QD) or twice daily (BID) with food with fixed-dose fulvestrant (intramuscularly every 14 days for the first three injections and then every 28 days). Pre- or perimenopausal patients also received goserelin for the duration of study treatment. […]
experimental readout: concentration at 6 h

                           substance_smiles  reported_value
0  O=C1NCC2(CCCCC2)n2c1cc1cnc(Nc3ccc(N4CCNCC4)cn3)nc12        10 ng/mL
